Test Name: Tolerability in CD1 mice: organ weight (Example 33)
Type: in vivo
Experimental Context: 50 mg/kg s.c. twice a week, 4 weeks, vs PBS control, normalized to body weight
Description: Three days after the last dose was administered to all groups, the mice were sacrificed.
Each entry below carries its reported Percent change in liver weight.

Take a look at these entries with their results.
# Substance, Reported Value
measured = [
    ("416925 (antisense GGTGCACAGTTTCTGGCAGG; 3-14-3 gapmer chemistry, further chemistry not given here) [compound 416925]", "+14%"),
    ("416825 (antisense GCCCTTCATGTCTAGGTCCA; 5-10-5 gapmer, further chemistry not given here) [compound 416825]", "+22%"),
    ("416864 (antisense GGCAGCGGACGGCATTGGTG; 5-10-5 gapmer, further chemistry not given here) [compound 416864]", "+2%"),
    ("417002 (antisense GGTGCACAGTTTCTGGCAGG; 2-13-5 gapmer chemistry, further chemistry not given here) [compound 417002]", "+8%"),
    ("416999 (antisense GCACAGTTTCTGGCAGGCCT; 2-13-5 gapmer chemistry, further chemistry not given here) [compound 416999]", "+30%"),
    ("416826 (antisense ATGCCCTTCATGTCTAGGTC; 5-10-5 gapmer, further chemistry not given here) [compound 416826]", "+32%"),
]

# Percent change in liver weight lookup, item 416838 (antisense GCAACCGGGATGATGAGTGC; 5-10-5 gapmer, further chemistry not given here) [compound 416838]
−6%

Would you mind telling me what Percent change in liver weight value was observed for 416850 (antisense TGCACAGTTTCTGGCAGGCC; 5-10-5 gapmer, further chemistry not given here) [compound 416850] ?
+3%

* * *

Tested on: IL-1β, IL-6, IFN-γ, TNF-α, IL-8, MIP-1α, MCP-1, MIP-1β, RANTES
Test Name: Cytokine and chemokine assays in cynomolgus monkeys (Example 46)
Format: in vivo
Experimental Context: day-14 (before start of treatment)
Strand notation (5' to 3'): a small letter for the sugar, then the base; units joined by * are phosphorothioate-linked, units joined directly phosphodiester-linked; [ ] holds rarer units or linkages, { } end groups; capitals alone tell only the bases. e = 2'-O-(2-methoxyethyl) (MOE); [5mC] = 5-methylcytosine; d = 2'-deoxy (DNA)
Listing of entries alongside the reported MIP-1ß level.
Just the number in pg/mL, nothing appended.

Value lookup for MIP-1ß level; key = ISIS 449707: 3-8-3, 4-8-4, 2-10-2, 3-10-3 or 4-10-4 MOE microwalk gapmer (Table 46) (antisense e[5mC]*eA*e[5mC]*eA*dG*dT*dT*dT*d[5mC]*dT*dG*dG*e[5mC]*eA*eG*eG)
13

Reported MIP-1ß level for ISIS 449710: 3-8-3, 4-8-4, 2-10-2, 3-10-3 or 4-10-4 MOE microwalk gapmer (Table 46) (antisense e[5mC]*eA*e[5mC]*dA*dG*dT*dT*dT*d[5mC]*dT*dG*dG*d[5mC]*eA*eG*eG) : what is it?
18

Which MIP-1ß level is reported for this substance? ISIS 445531: 5-8-5 or 6-8-6 MOE microwalk gapmer (Table 44) (antisense eG*eG*e[5mC]*eA*eT*dT*dG*dG*dT*dG*d[5mC]*dA*d[5mC]*eA*eG*eT*eT*eT)
22

* * *

// reported Inhibition of Factor 11 protein relative to the PBS control for each item listed
System: Factor 11 protein
Test Name: Factor 11 protein in monkey plasma by sandwich ELISA (Example 45)
Type: in vivo, cynomolgus monkeys
Experimental Context: day 29; escalating dose regimen; plasma ELISA
Description: Groups, each consisting of two male and three female monkeys, were injected subcutaneously with ISIS 416838, ISIS 416850, ISIS 416858, ISIS 416864, or ISIS 417002 in escalating doses. […] Body weights were measured weekly. […] The results are presented in Table 115, expressed as percentage reduction relative to that of the PBS control.
Respond with the figure and its unit, in that order.

Worked examples follow.
# Substance, Reported Value
rows = [
    ("ISIS 416858: MOE gapmer, nucleobases 1275 to 1318 of SEQ ID NO: 1 (Table 8) (antisense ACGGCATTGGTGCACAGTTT; MOE gapmer, wing and gap sizes not given here)", "28%"),
    ("ISIS 416838: MOE gapmer, nucleobases 1018 to 1042 of SEQ ID NO: 1 (Table 6) (antisense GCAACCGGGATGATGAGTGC; MOE gapmer, wing and gap sizes not given here)", "8%"),
]

Dear colleague, I am looking for the recorded Inhibition of Factor 11 protein relative to the PBS control of the following substance: ISIS 417002: MOE gapmer, nucleobases 1275 to 1318 of SEQ ID NO: 1 (Table 8) (antisense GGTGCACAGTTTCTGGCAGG; MOE gapmer, wing and gap sizes not given here)
8%

Request the reported Inhibition of Factor 11 protein relative to the PBS control associated with ISIS 416850: MOE gapmer, nucleobases 1275 to 1318 of SEQ ID NO: 1 (Table 8) (antisense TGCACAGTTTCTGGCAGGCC; MOE gapmer, wing and gap sizes not given here)
15%

Requested read-out: Inhibition of Factor 11 protein relative to the PBS control. Entry: ISIS 416864: MOE gapmer, nucleobases 1275 to 1318 of SEQ ID NO: 1 (Table 8) (antisense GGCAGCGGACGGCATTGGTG; MOE gapmer, wing and gap sizes not given here)
10%

* * *

Tested on: human Factor 11 mRNA
Test Name: Dose-dependent antisense inhibition of human Factor 11 in HepG2 cells, lipofectin 9.375-150 nM (Example 2)
Format: cell-based
Experimental Context: 18.75 nM, ~16 h
Strand notation (5' to 3'): a small letter for the sugar, then the base; units joined by * are phosphorothioate-linked, units joined directly phosphodiester-linked; [ ] holds rarer units or linkages, { } end groups; capitals alone tell only the bases. e = 2'-O-(2-methoxyethyl) (MOE); [5mC] = 5-methylcytosine; d = 2'-deoxy (DNA)
percent inhibition of Factor 11 at 18.75 nM values, listed per item
Value and unit, in that order.

# Substance, Reported Value
data = [
    ("413481 (antisense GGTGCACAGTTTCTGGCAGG; 5-10-5 MOE gapmer, further chemistry not given here) [compound 413481]", "38%"),
    ("413482 (antisense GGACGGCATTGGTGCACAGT; 5-10-5 MOE gapmer, further chemistry not given here) [compound 413482]", "39%"),
    ("413469 (antisense eT*eG*e[5mC]*e[5mC]*e[5mC]*dT*dT*d[5mC]*dA*dT*dG*dT*d[5mC]*dT*dA*eG*eG*eT*e[5mC]*e[5mC]) [compound 413469]", "33%"),
    ("413468 (antisense eG*eT*e[5mC]*eT*eA*dG*dG*dT*d[5mC]*d[5mC]*dA*d[5mC]*dA*dT*dA*eA*eA*eT*eG*eT) [compound 413468]", "34%"),
    ("412223 (antisense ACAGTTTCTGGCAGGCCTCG; 5-10-5 MOE gapmer, further chemistry not given here) [compound 412223]", "48%"),
]

Switching to the query record.
# query: percent inhibition of Factor 11 at 18.75 nM of entry 412225 (antisense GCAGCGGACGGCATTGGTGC; 5-10-5 MOE gapmer, further chemistry not given here) [compound 412225]
42%

* * *

Test Name: Hematology assays in cynomolgus monkeys (Example 45)
Assay type: in vivo
Experimental Context: day 64; escalating dose regimen
Catalogue of MCHC values
Report as a plain number; the unit g/dL is understood.

# Substance, MCHC (g/dL)
data = [
    ("ISIS 417002: MOE gapmer, nucleobases 1275 to 1318 of SEQ ID NO: 1 (Table 8) (antisense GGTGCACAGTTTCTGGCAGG; MOE gapmer, wing and gap sizes not given here)", 30),
    ("ISIS 416850: MOE gapmer, nucleobases 1275 to 1318 of SEQ ID NO: 1 (Table 8) (antisense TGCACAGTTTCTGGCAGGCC; MOE gapmer, wing and gap sizes not given here)", 29),
    ("ISIS 416864: MOE gapmer, nucleobases 1275 to 1318 of SEQ ID NO: 1 (Table 8) (antisense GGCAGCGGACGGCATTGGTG; MOE gapmer, wing and gap sizes not given here)", 29),
    ("ISIS 416838: MOE gapmer, nucleobases 1018 to 1042 of SEQ ID NO: 1 (Table 6) (antisense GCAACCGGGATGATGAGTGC; MOE gapmer, wing and gap sizes not given here)", 29),
]

Kindly review the next substance as well.
Recorded MCHC for ISIS 416858: MOE gapmer, nucleobases 1275 to 1318 of SEQ ID NO: 1 (Table 8) (antisense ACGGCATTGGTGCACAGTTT; MOE gapmer, wing and gap sizes not given here) , please?
30

* * *

substances and their reported body weight
Test Name: Body and organ weights of cynomolgus monkeys (Example 46)
Type: in vivo
Experimental Context: day 29
Strand notation (5' to 3'): a small letter for the sugar, then the base; units joined by * are phosphorothioate-linked, units joined directly phosphodiester-linked; [ ] holds rarer units or linkages, { } end groups; capitals alone tell only the bases. e = 2'-O-(2-methoxyethyl) (MOE); [5mC] = 5-methylcytosine; d = 2'-deoxy (DNA)
Number in g, nothing else.

Consider the following illustrative entries.
# Substance, body weight / g
measured = [
    ("ISIS 449709: 3-8-3, 4-8-4, 2-10-2, 3-10-3 or 4-10-4 MOE microwalk gapmer (Table 46) (antisense eG*e[5mC]*eA*e[5mC]*dA*dG*dT*dT*dT*d[5mC]*dT*dG*dG*d[5mC]*eA*eG*eG*e[5mC])", 2068),
    ("ISIS 416850: MOE gapmer, nucleobases 1275 to 1318 of SEQ ID NO: 1 (Table 8) (antisense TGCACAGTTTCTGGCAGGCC; MOE gapmer, wing and gap sizes not given here)", 2159),
    ("ISIS 449711: 3-8-3, 4-8-4, 2-10-2, 3-10-3 or 4-10-4 MOE microwalk gapmer (Table 46) (antisense eA*e[5mC]*dA*dG*dT*dT*dT*d[5mC]*dT*dG*dG*d[5mC]*eA*eG)", 2203),
    ("ISIS 445531: 5-8-5 or 6-8-6 MOE microwalk gapmer (Table 44) (antisense eG*eG*e[5mC]*eA*eT*dT*dG*dG*dT*dG*d[5mC]*dA*d[5mC]*eA*eG*eT*eT*eT)", 2148),
]

Any idea what body weight was measured for ISIS 416858: MOE gapmer, nucleobases 1275 to 1318 of SEQ ID NO: 1 (Table 8) (antisense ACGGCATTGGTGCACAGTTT; MOE gapmer, wing and gap sizes not given here) ?
2196

Quick one: body weight of ISIS 449710: 3-8-3, 4-8-4, 2-10-2, 3-10-3 or 4-10-4 MOE microwalk gapmer (Table 46) (antisense e[5mC]*eA*e[5mC]*dA*dG*dT*dT*dT*d[5mC]*dT*dG*dG*d[5mC]*eA*eG*eG) ?
2149

Quick one: body weight of ISIS 445522: 5-8-5 or 6-8-6 MOE microwalk gapmer (Table 44) (antisense eG*e[5mC]*eA*e[5mC]*eA*dG*dT*dT*dT*d[5mC]*dT*dG*dG*e[5mC]*eA*eG*eG*e[5mC]) ?
2125

Given the substance ISIS 449707: 3-8-3, 4-8-4, 2-10-2, 3-10-3 or 4-10-4 MOE microwalk gapmer (Table 46) (antisense e[5mC]*eA*e[5mC]*eA*dG*dT*dT*dT*d[5mC]*dT*dG*dG*e[5mC]*eA*eG*eG) , what is its reported body weight?
2155

Form field: reported body weight of ISIS 449708: 3-8-3, 4-8-4, 2-10-2, 3-10-3 or 4-10-4 MOE microwalk gapmer (Table 46) (antisense eA*e[5mC]*eA*dG*dT*dT*dT*d[5mC]*dT*dG*dG*e[5mC]*eA*eG)
2095
